Hello, the source for this data is paper PMC2756588, in case you need it.

# MEASURED_ON: T1, Bud14, P27637
# T1 sequence (P27637 247-328, looked up): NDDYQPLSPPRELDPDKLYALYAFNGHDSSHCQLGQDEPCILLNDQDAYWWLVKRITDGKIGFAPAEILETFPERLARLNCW
# MEASUREMENT_DESCRIPTION: SPOT array
# RUN_CONDITIONS: median of control spots 956
MEASURED_ENDPOINT: SPOT intensity
Just the number, please, no unit attached.

Solved cases (5 shown):
QPPLPSSAPPIPTSH :: 0
VPPPMQPPPIESSNL :: 0
RRRDFGAPANKRPRR :: 4
IFLRISINFPLNYPN :: 18
NILKRRPLKLEAPSK :: 19

Task: Tell me its SPOT intensity given "VPKEPAPAPPPEPDM" as the entry.
Result: 0

Task: Tell me measured SPOT intensity for "FFRRSELYLPNSSKA" please.
Result: 10

Task: Specify SPOT intensity for "EREKALPPIPFTTTL" and stop.
Result: 0

Task: // Input: "KDKKTKPTPPPKPSH" . Output its SPOT intensity only.
Result: 4

Task: Please give measured SPOT intensity of the following entry: "RRRIAYPFYPFKKLG"
Result: 3

Task: Retrieve SPOT intensity measured for "TKRKRPARLIFYDSK" and print it.
Result: 29

Task: Look up and state reported SPOT intensity for "SRQAIPPPVPNRPGG"
Result: 0

Task: Name the recorded SPOT intensity of the item "SKSRLLIELPEGFFT" in your answer.
Result: 1

Task: # return recorded SPOT intensity for entry "GKKVRPLLVLLLSRA"
Result: 9

Task: Look up and report measured SPOT intensity for this entry: "PSRRAPLQLPQLVNK"
Result: 0
